Origin of the recorded values: paper PMC12560828

System: early life stage zebrafish (Danio rerio) embryos
Assay: Developmental toxicity morphology screen, sealed rotating vial exposure
Type: in vivo
Details: Fig. 2 heatmap; nominal concentration, exposure 6-24 hpf in vials, summary of all endpoints
Readout: BMC50 Any effect (µM)

> print(dat)
                                    compound                               test.system           readout  numeric.value
 1  Cc1cc2ccccc2cc1C [2,3-dimethylnaphthalene]  early life stage zebrafish (Danio rerio) embryos  BMC50 Any effect           46.6
 2  Cc1cccc2c(C)cccc12 [1,5-dimethylnaphthalene]  early life stage zebrafish (Danio rerio) embryos  BMC50 Any effect           36.9
 3  Cc1ccc(C)c2ccccc12 [1,4-dimethylnaphthalene]  early life stage zebrafish (Danio rerio) embryos  BMC50 Any effect           24.9
 4   CCCCc1ccc2ccccc2c1 [2-butylnaphthalene]  early life stage zebrafish (Danio rerio) embryos  BMC50 Any effect           13.8
 5  CC(C)c1ccc2ccccc2c1 [2-isopropylnaphthalene]  early life stage zebrafish (Danio rerio) embryos  BMC50 Any effect           19.8
 6     CCc1ccc2ccccc2c1 [2-ethylnaphthalene]  early life stage zebrafish (Danio rerio) embryos  BMC50 Any effect           35.2
 7  Cc1ccc(C)c2c(C)cccc12 [1,4,5-trimethylnaphthalene]  early life stage zebrafish (Danio rerio) embryos  BMC50 Any effect           19.7
 8  CCc1ccc2cc(CC)ccc2c1 [2,6-diethylnaphthalene]  early life stage zebrafish (Danio rerio) embryos  BMC50 Any effect           18.8
 9  Cc1cc(C)c2c(C)cccc2c1 [2,4,5-trimethylnaphthalene]  early life stage zebrafish (Danio rerio) embryos  BMC50 Any effect             22
10  Cc1cccc2cccc(C)c12 [1,8-dimethylnaphthalene]  early life stage zebrafish (Danio rerio) embryos  BMC50 Any effect           41.2
11     CCc1cccc2ccccc12 [1-ethylnaphthalene]  early life stage zebrafish (Danio rerio) embryos  BMC50 Any effect           33.7
